assay: COS7 lysate on small-molecule microarray, probe aHis, 635 nm (AID 1123); conditions: COS7 cell lysate, fluorescence, higher = more signal;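 note: z-score combines 667nm fluorescence intensity with signal-to-noise per printed compound spot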
Reported Property: composite z-score

Compound: O=C1OCCC/C=C\[C@H]2OC34C=CCN(Cc5ccccc5)C(=O)[C@H]3N(CCO)C(=O)[C@@H]4C12 (stereo partly specified)
Result Value: 1.11
--
Compound: O=C1C2C=CC(C(O)C(c3ccccc3)c3ccccc3)N(Nc3ccccc3F)C2C(=O)N1c1ccccc1 (stereo unspecified)
Result Value: 2.99
--
Compound: COC(=O)C1=CC(CCCO)=CC(c2ccc(CN3CCCC3)cc2)N(C)C=C1C(=O)OC (stereo unspecified)
Result Value: 1.72
--
Compound: COc1cc(Cc2cc3c(c(CCc4ccccc4)n2)[Si](C(C)C)(C(C)C)O[C@H]3c2ccccc2)cc(OC)c1OC
Result Value: -0.178
--
Compound: Cc1ccc(S[C@]2(C(=O)NCCN3CCOCC3)CC(=O)N(C(C)C)[C@@H]2c2ccc(CO)cc2I)cc1
Result Value: 1.19
--
Compound: C[C@]1(C(=O)O)c2ccccc2C(=O)N(Cc2cc(C(F)(F)F)cc(C(F)(F)F)c2)[C@H]1c1ccc(CO)cc1
Result Value: 0.516
--
Compound: C[C@]12C(=O)N(CCO)[C@@H]3C(=O)N(c4ccc(Cl)cc4)CC=CC31O[C@@H]1/C=C\CCCOC(=O)C12 (stereo partly specified)
Result Value: -0.485
--
Compound: Cc1c(NC(=O)/C(C#N)=C/C=C/c2ccc([N+](=O)[O-])cc2)c(=O)n(-c2ccccc2)n1C
Result Value: 2.23
--
Compound: CN1C2C=C(c3ccc(CO)cc3)C(C3C(=O)N(C(N)=O)C(=O)C32)C1C1CC1 (stereo unspecified)
Result Value: 0.151
--
Compound: COc1cc2c(cc1O)C(C)N(Cc1sc3ccccc3c1Cl)CC2 (stereo unspecified)
Result Value: 0.477
--
Compound: CC(C)(C)OC(=O)CC[C@]1(C(=O)N2CCOCC2)COC(c2ccc(OCCCO)cc2)=N1
Result Value: 2.85
--
Compound: C=CCNC(=O)[C@@H]1[C@H]2C(=O)O[C@H](c3ccccc3)[C@H](c3ccccc3)N2[C@H](c2ccc(OCCO)cc2)[C@@]12C(=O)Nc1ccc(C#CCNC(N)=O)cc12
Result Value: 0.813
--
Compound: CC1(C)OB(/C=C\CC(OC(=O)c2ccncc2)c2ccccc2)OC1(C)C (stereo unspecified)
Result Value: 0.677
--
Compound: Cc1ccc(S[C@]2(C(=O)NC(C)C)CC(=O)N(Cc3ccccc3)[C@@H]2c2ccc(CO)cc2I)cc1
Result Value: 1.79
--
Compound: COC(=O)[C@@]1(Cc2ccc(F)cc2)[C@H]2c3cc(C(=O)N(C)C)n(Cc4cccc5ccccc45)c3C[C@H]2CN1C(=O)c1ccccc1
Result Value: 4.13
--
Compound: COC(=O)C[C@H]1O[C@]2(C(=O)N(C)c3ccccc32)[C@@H](C)[C@@H]1[Si](C)(C)c1ccccc1
Result Value: 0.198
